system: IGROV1 ovarian; test: NCI tumour cell line growth inhibition, 48 h; in the data active = GI50 below about 0.43 µM; inactive = the rest
Output constraint: value belongs to label 1 (active), label 0 (inactive)

Record excerpt, results attached:
COMPOUND STRUCTURE STRING	CLASSIFICATION
COc1ccc(-c2ccc(/C=N/n3c(C)n[nH]c3=S)o2)c([N+](=O)[O-])c1	label 0
O=C(Nc1ccc(Br)cc1)c1ccc(Cl)c(Cl)c1	label 0
Cc1cc2c(cc1Cl)SC(=Nc1ccc(Cl)cc1)N(S(=O)(=O)c1ccccc1)S2(=O)=O	label 0
N#C/C(=C/N1CCN(C(=O)c2ccco2)C1=S)C(=O)c1ccccc1	label 0
Oc1cn(-c2ccc(Cl)cc2)nc1-c1n[nH]c(=S)n1C1CCCCC1	label 0
COc1ccc2ncn(-c3cc(O[C@H](C)c4ccccc4Cl)c(C(N)=O)s3)c2c1	label 1
O=[N+]([O-])c1ccc2c(c1)C(c1ccccc1Cl)=Nc1cn[nH]c1N2	label 0
COc1cc2c3c(n(CCCN(C)C)c(=O)c2cc1OC)-c1ccccc1C3=O	label 0
O=C(Nc1ccc(-n2cc(-c3ccncc3)c(-c3ccc(Cl)c(O)c3)n2)cc1)Nc1ccc(Cl)c(C(F)(F)F)c1	label 0

API: the following record is the query input.
Hello, I am checking results. What call was entered for Cc1cc(I)cc(CN(C)CCCN2CCOCC2)c1O ?
label 0

----------
test system: CCRF-CEM leukemia; assay: NCI tumour cell line growth inhibition, 48 h
PROPERTY LABEL: TGI

Some solved entries appear below for comparison.
COMPOUND	TGI
C=C1C(=O)CC2C(=O)C(C)(O)CC/C=C(\C)C(=O)CC12 (stereo not given)	23.5 µM
Cc1cc(C)c(C2[C@H]3C(=O)N(c4ccc(Cc5ccc(N6C(=O)[C@@H]7ON(c8ccccc8)C(c8c(C)cc(C)cc8C)[C@@H]7C6=O)cc5)cc4)C(=O)[C@H]3ON2c2ccccc2)c(C)c1 (stereo not given in full)	> 100 µM
COCCOc1cnc2ccn([C@H](C)c3nnc4c(F)cc(-c5cnn(C)c5)cn34)c(=O)c2c1	> 100 µM
CN(NC(=O)c1cccs1)C1=NCCCN1	> 100 µM

Moving on to the next compound.
Give TGI for COC(=O)/C(C=O)=C/Sc1ccccc1 tested on CCRF-CEM leukemia.
> 100 µM

----------
test system: MDA-MB-231 breast; assay: NCI tumour cell line growth inhibition, 48 h
PROPERTY LABEL: TGI

Some solved entries appear below for comparison.
COMPOUND	TGI
O=C(NCCCCCCNCc1cccc2ccccc12)Nc1cccc2ccccc12	> 100 µM
O=c1[nH]nc(Cc2ccc([N+](=O)[O-])cc2)n1CCO	> 100 µM
CN(C)c1ccc(C2SCC(=O)N2NS(=O)(=O)c2cccc(C(=O)O)c2)cc1 (stereo not given)	> 100 µM
CCOC(=O)/C=C(/C(=O)OCC)n1ccc(N)nc1=O	> 100 µM
NCCN=C(Nc1ccccc1)Nc1ccccc1	> 100 µM
COc1cccc(/C(COc2ccc3c(c2)oc(=O)c2cc(OC)ccc23)=N/O)c1	71 µM
Cc1c(C2=C(Br)C(=O)N(C)C2=O)c(=O)n(C)c(=O)n1C	65.3 µM
COc1cc(C2SCC(=O)N2c2ccc(-c3ccc(-n4c(-c5ccccc5)nc5ccccc5c4=O)cc3)cc2)cc(OC)c1OC (stereo not given)	> 100 µM
CN(NC(=O)c1cccs1)C1=NCCCN1	> 100 µM

Output measured TGI for this item: CC(=O)O[C@H]1CC[C@@]2(C)C(=CC[C@H]3[C@@H]4C[C@H](N5CCCC5)[C@H](OC(C)=O)[C@@]4(C)CC[C@@H]32)C1
> 100 µM
